# Activity per record follows
# Procedure details: Induction of apoptosis in human platelets assessed as necrotic cells after 10 mins using Annexin V/propidium iodide by flow cytometry (reference value: 0.07 %)
# Format: cell-based
# Particulars: platelet
Report the value in % with no unit label.

{"columns": ["Compound", "Unit abbrev", "Activity"],
 "data": [
  ["NC(=S)N/N=C/c1ccc(Sc2ccc(C(F)(F)F)cc2[N+](=O)[O-])o1", "%", 0.09]
]}

Fill in: Activity of `NC(=S)N/N=C/c1ccc(Sc2ccc(C(F)(F)F)cc2)o1` is ___ 0.16

Fill in: Activity of O=C(Cn1ccnc1[N+](=O)[O-])NCc1ccccc1 [BENZNIDAZOLE] is ___ 0.12

Fill in: Activity of `NC(=S)N/N=C/c1ccc(Sc2cccc(C(F)(F)F)c2)o1` is ___ 0.17

Fill in: Activity of `NC(=S)N/N=C/c1ccc(Sc2c(F)c(F)c(C(F)(F)F)c(F)c2F)o1` is ___ 0.04

Fill in: Activity of `NC(=S)N/N=C/c1ccc(Sc2ccccc2C(F)(F)F)o1` is ___ 0.05
